- target-entity: UniProt:P22437
- Sequence (P22437 27-602): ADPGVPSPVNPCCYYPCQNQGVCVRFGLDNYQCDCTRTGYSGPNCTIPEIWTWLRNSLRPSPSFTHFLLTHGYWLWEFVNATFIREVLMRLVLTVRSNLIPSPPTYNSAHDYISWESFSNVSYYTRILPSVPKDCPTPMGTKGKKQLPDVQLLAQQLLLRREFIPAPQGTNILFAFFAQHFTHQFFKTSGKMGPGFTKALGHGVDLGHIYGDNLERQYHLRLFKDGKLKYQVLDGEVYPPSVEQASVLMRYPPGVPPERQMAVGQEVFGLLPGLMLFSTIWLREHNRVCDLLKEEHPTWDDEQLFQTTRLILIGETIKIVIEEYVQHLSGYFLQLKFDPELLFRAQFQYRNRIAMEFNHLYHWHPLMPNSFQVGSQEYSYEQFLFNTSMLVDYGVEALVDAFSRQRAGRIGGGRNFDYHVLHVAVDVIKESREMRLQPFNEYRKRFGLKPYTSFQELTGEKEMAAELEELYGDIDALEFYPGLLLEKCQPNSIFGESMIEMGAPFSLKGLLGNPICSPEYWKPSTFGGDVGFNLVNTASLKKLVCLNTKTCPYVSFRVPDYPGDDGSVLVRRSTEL
- measurement-description: Evaluation of COX-1 activity: PGE2 formation in mouse peritoneal macrophages without aspirin and LPS treatment
- Type: cell-based
Cut-off 5 µg/mL on IC50, μg/ml COX-1: below means met, at or above means not met.

- compound: "CC1(C)OC(c2ccc(S(N)(=O)=O)cc2)=C(c2cccc(Cl)c2)C1=O"
  category: "met"
- compound: "CCC1(C)OC(c2ccc(S(C)(=O)=O)cc2)=C(c2ccc(C)s2)C1=O (stereo not shown)"
  category: "met"
- compound: "CC1(C)OC(c2ccc(S(C)(=O)=O)c(Cl)c2)=C(c2cccc(F)c2)C1=O"
  category: "not met"
- compound: "CSc1ccc(C2=C(c3ccccc3)C(=O)C(C)(C)O2)cc1"
  category: "not met"
- compound: "CC1(C)OC(c2ccc(S(C)(=O)=O)c(F)c2)=C(c2cccc(Cl)c2)C1=O"
  category: "not met"
- compound: "CC1(C)OC(c2ccc(S(C)(=O)=O)c(F)c2)=C(c2cc(F)cc(F)c2)C1=O"
  category: "not met"
- compound: "CC1(C)OC(c2ccc(S(N)(=O)=O)c(Cl)c2)=C(c2cc(F)cc(F)c2)C1=O"
  category: "not met"
- compound: "CCC1(C)OC(c2ccc(S(N)(=O)=O)cc2)=C(c2cccc(OC)c2)C1=O (stereo not shown)"
  category: "not met"
- compound: "COc1ccc(C2=C(c3ccc(S(N)(=O)=O)cc3)OC(C)(C)C2=O)cc1OC"
  category: "not met"
- compound: "CCC1(CC)OC(c2ccc(S(C)(=O)=O)cc2)=C(c2ccc(C(C)=O)cc2)C1=O"
  category: "not met"
- compound: "CC1(C)OC(c2ccc(S(C)(=O)=O)c(Cl)c2)=C(c2cc(F)cc(F)c2)C1=O"
  category: "not met"
- compound: "CC1(C)OC(c2ccc(S(C)(=O)=O)cc2F)=C(c2cc(F)cc(F)c2)C1=O"
  category: "not met"
- compound: "CC1(C)OC(c2ccc(S(N)(=O)=O)cc2)=C(c2ccco2)C1=O"
  category: "not met"
- compound: "CCC1(C)OC(c2ccc(S(C)(=O)=O)cc2)=C(c2cccnc2)C1=O (stereo not shown)"
  category: "not met"
- compound: "CCC1(C)OC(c2ccc(S(N)(=O)=O)cc2)=C(c2ccsc2)C1=O (stereo not shown)"
  category: "not met"
- compound: "CC(C)c1cccc(C2=C(c3ccc(S(C)(=O)=O)cc3)OC(C)(C)C2=O)c1"
  category: "not met"
- compound: "CC(=O)c1ccc(C2=C(c3ccc(S(C)(=O)=O)cc3)OC(C)(C)C2=O)cc1"
  category: "not met"
- compound: "COc1ccccc1C1=C(c2ccc(S(C)(=O)=O)cc2)OC(C)(C)C1=O"
  category: "not met"
- compound: "CC1(C)OC(c2ccc(S(C)(=O)=O)c(F)c2)=C(c2ccc(F)c(F)c2)C1=O"
  category: "not met"
- compound: "CCC1(CC)OC(c2ccc(S(C)(=O)=O)cc2)=C(c2ccc(OC)c(F)c2)C1=O"
  category: "not met"
- compound: "CC1(C)OC(c2ccc(S(N)(=O)=O)c(F)c2)=C(c2ccc(F)cc2)C1=O"
  category: "met"
- compound: "CC1(C)OC(c2ccc(S(C)(=O)=O)c(F)c2)=C(c2cccc(Cl)c2)C1=S"
  category: "met"
- compound: "CC1(C)OC(c2ccc(S(N)(=O)=O)cc2)=C(c2ccc(F)c(F)c2)C1=O"
  category: "met"
- compound: "CC1(C)OC(c2ccc(S(C)(=O)=O)cc2)=C(c2cc(Cl)cc(Cl)c2)C1=O"
  category: "met"
